Value source: patent US10434199B2

# ASSAY SUMMARY: Potentiometric titrations: stability constants and pM of Cu^2+ complexes
# Type: physicochemical
# RUN CONDITIONS: overview table; calculated pM
REPORTED METRIC: b) thermodynamic stability: pCu

INSERT INTO measurements (compound, reported) VALUES
  ('O=C(O)c1cccc(CN2CCCNCCNCCCNCC2)n1', 18.64),
  ('O=C(O)CN1CCN(CC(=O)O)CCN(CC(=O)O)CCN(CC(=O)O)CC1', 15.19),
  ('O=C(O)c1cccc(CN2CCCN3CCNCCCN(CC3)CC2)n1', 15.67),
  ('O=C(O)CN1CCCN(CC(=O)O)CCN(CC(=O)O)CCCN(CC(=O)O)CC1', 15.19);

====

# ASSAY SUMMARY: Potentiometric titrations: stability constants and pM of Zn^2+ complexes
# Type: physicochemical
# RUN CONDITIONS: overview table; calculated pM
REPORTED METRIC: c) inertness vs Zn: pZn

Known results for molecules:
INSERT INTO measurements (compound, reported) VALUES
  ('O=C(O)c1cccc(CN2CCCNCCNCCCNCC2)n1', 12.00),
  ('O=C(O)c1cccc(CN2CCCN3CCNCCCN(CC3)CC2)n1', 8.50);

(P) O=C(O)CN1CCN(CC(=O)O)CCN(CC(=O)O)CCN(CC(=O)O)CC1
(Q) O=C(O)CN1CCCN(CC(=O)O)CCN(CC(=O)O)CCCN(CC(=O)O)CC1
Query: Sort P and Q by c) inertness vs Zn: pZn descending and give the first. Indicate which entry you chose by stating its label.
Reply: P
(P: 15.01, Q: 10.08)
